# Experimental system: TYRO3 (human) (UniProt Q06418)
# Sequence (Q06418 whole entry, looked up): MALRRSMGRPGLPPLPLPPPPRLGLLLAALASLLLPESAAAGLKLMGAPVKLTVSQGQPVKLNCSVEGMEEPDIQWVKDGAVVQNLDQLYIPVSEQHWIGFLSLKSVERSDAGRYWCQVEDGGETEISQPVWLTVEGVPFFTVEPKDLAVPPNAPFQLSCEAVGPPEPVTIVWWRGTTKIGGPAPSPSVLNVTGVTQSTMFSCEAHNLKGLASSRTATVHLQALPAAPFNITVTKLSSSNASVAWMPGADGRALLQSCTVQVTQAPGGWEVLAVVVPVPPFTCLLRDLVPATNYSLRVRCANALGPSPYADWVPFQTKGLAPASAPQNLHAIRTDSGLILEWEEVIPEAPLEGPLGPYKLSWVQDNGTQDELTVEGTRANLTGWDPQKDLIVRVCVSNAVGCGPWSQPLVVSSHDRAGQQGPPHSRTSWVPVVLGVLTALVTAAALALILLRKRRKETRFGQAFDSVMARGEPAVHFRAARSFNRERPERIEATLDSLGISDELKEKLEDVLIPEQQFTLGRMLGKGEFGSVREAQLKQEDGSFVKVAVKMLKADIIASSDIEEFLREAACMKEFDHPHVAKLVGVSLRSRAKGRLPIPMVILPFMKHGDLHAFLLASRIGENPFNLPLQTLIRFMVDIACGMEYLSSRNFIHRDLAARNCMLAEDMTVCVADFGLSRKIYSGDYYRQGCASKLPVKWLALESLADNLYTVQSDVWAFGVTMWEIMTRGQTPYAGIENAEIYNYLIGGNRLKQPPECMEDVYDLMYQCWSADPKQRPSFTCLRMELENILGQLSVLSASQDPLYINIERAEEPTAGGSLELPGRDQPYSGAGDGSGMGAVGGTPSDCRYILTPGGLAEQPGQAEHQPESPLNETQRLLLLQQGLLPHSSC
# Procedure summary: radiometric filter-binding kinase assay, Kinase HotSpot
# Experimental setup: compound 0.5 µM; ATP 10 µM
Kindly state residual activity for each of the entries shown.
One number for each entry, in %.

Use these answered entries as a reference point.
Cn1nc2c3c(cccc31)C(=O)c1ccccc1-2 ... 99.8
COc1cc2ncc(-c3ccccc3)nc2cc1OC ... 100
CC(=O)O/N=C1\C(=C2\C(=O)Nc3cc(Br)ccc32)Nc2ccccc21 ... 69.8
COc1ccc(OC)c2c(=S)c3ccccc3[nH]c12 ... 97.1
Cc1nc2cc3nc(-c4cccs4)cnc3cc2n1C ... 103

Report residual activity for every entry below.
1. Nc1nnc2[nH]c3ccccc3nc1-2
2. O=C1NC(=O)C(c2cn(CCCO)c3ncccc23)=C1c1cnccn1
3. O=C1Nc2ccccc2/C1=C1/Nc2ccccc2/C1=N\OCCC(O)CO (stereo not drawn)
4. CCn1cnc2c(Nc3cccc(Cl)c3)nc(N[C@@H]3CCCC[C@@H]3N)nc21
5. CN([C@@H](Cc1ccc(OS(=O)(=O)c2cccc3cnccc23)cc1)C(=O)N1CCN(c2ccccc2)CC1)S(=O)(=O)c1cccc2cnccc12
6. CCN(CC)CCCCN1c2ccccc2Oc2ccc(Cl)cc21
7. O=C(O)/C=C/c1cc(Br)c(Br)c(Br)c1Br

[out]
1. 101
2. 93.7
3. 71.5
4. 98.3
5. 101
6. 103
7. 93.3

----------
What residual activity was measured for each of the following?
# Experimental system: PAK1 (human) (UniProt Q13153)
# Sequence (Q13153 whole entry, looked up): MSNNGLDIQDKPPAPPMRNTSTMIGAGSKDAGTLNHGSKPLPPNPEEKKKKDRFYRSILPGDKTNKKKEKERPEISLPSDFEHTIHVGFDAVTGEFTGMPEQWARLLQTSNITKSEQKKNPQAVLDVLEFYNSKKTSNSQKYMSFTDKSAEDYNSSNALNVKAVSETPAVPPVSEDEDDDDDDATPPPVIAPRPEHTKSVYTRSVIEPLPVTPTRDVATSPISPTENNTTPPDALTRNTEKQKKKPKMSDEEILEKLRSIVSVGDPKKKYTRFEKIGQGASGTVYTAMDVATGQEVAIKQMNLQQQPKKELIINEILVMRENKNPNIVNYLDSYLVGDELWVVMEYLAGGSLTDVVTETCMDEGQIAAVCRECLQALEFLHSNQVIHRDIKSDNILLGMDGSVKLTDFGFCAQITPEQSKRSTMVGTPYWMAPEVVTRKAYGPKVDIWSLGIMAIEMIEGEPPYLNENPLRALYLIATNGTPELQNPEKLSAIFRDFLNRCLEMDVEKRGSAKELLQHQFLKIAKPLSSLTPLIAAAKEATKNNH
# Procedure summary: radiometric filter-binding kinase assay, Kinase HotSpot
# Experimental setup: compound 0.5 µM; ATP 10 µM
Give bare numbers, in %.

Cn1nc2c3c(cccc31)C(=O)c1ccccc1-2 ... 98.5
Nc1nnc2[nH]c3ccccc3nc1-2 ... 97.1
CN([C@@H](Cc1ccc(OS(=O)(=O)c2cccc3cnccc23)cc1)C(=O)N1CCN(c2ccccc2)CC1)S(=O)(=O)c1cccc2cnccc12 ... 95.7
Cn1cnc2cc3c(Nc4cccc(Br)c4)ncnc3cc21 ... 91.4

Okay, next one:
[in] Item under review: Nc1nccc(-c2c(-c3ccc(F)cc3)ncn2C2CCNCC2)n1 . Reported residual activity?
[out] 97.4

----------
Would you kindly list residual activity for each of these molecules?
# Experimental system: NEK7 (human)
# Procedure summary: radiometric filter-binding kinase assay, Kinase HotSpot
# Experimental setup: compound 0.5 µM; ATP 10 µM

CCn1cnc2c(Nc3cccc(Cl)c3)nc(N[C@@H]3CCCC[C@@H]3N)nc21 ... 86%
CC(=O)O/N=C1\C(=C2\C(=O)Nc3cc(Br)ccc32)Nc2ccccc21 ... 91.9%
O=C1NC(=O)/C(=C\c2ccc3nccnc3c2)S1 ... 105%
O=C(CCCc1ccc(-c2ccccc2F)cc1)Nc1ccc(O)cc1 ... 97.3%
COc1cc2ncc(-c3ccccc3)nc2cc1OC ... 102%
Cn1sc(=O)n(Cc2ccccc2)c1=O ... 101%

Give one value of residual activity per listed molecule.
1. CN([C@@H](Cc1ccc(OS(=O)(=O)c2cccc3cnccc23)cc1)C(=O)N1CCN(c2ccccc2)CC1)S(=O)(=O)c1cccc2cnccc12
2. CN(C)C[C@H]1CCn2c(c(C3=C(c4cn(C)c5ccccc45)C(=O)NC3=O)c3ccccc32)C1

[out]
1: 93.3%; 2: 100%

Fill in residual activity for each of the 2 molecules listed.
1. O=C1NC(=O)C(c2cn(CCCO)c3ncccc23)=C1c1cnccn1
2. COc1ccc(CNC(=O)Nc2ncc([N+](=O)[O-])s2)cc1

[out]
["95.4%", "99.4%"]

Data credit: the kinase profiling compilation of Christmann-Franck et al. (2016)
